Target: SIRT1 (Homo sapiens)
Sequence (Q96EB6 whole entry): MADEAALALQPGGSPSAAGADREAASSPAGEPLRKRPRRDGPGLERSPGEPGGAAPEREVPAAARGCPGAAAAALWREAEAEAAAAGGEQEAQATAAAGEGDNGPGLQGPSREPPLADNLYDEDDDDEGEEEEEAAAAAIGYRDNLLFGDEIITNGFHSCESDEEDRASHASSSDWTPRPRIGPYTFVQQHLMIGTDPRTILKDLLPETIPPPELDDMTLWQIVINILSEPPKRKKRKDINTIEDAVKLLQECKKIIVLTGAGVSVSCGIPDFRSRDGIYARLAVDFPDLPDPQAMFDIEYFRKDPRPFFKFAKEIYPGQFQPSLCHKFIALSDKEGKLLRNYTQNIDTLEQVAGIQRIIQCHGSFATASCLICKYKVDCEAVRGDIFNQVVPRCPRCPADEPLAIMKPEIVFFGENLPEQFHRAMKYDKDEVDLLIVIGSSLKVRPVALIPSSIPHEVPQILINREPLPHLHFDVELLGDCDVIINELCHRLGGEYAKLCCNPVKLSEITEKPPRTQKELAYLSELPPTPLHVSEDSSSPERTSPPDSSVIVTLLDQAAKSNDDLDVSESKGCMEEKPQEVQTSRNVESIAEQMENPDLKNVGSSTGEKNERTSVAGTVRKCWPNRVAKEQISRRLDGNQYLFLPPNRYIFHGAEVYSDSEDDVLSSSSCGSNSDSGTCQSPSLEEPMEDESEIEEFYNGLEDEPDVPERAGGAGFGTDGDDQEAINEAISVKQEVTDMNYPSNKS
Experiment: SIRT1 mass spectrometry (MS) based deacetylation assay
Format: biochemical
Settings: SIRT1 activation, mass spectrometry assay; read-out: ED50 MS ASSAY
Reported EC50 is given for each of the following molecules.

# smiles_entry, metric_name, observed
data = [
    ("COc1ccc(C(=O)Nc2ccc(-c3nc4cnccc4o3)s2)c(OC)c1", "EC50", "5 to 50 µM"),
    ("COc1cc(C(=O)N(C)c2ccccc2-c2nc3ncccc3o2)cc(OC)c1OC", "EC50", "> 150 µM"),
    ("O=C(Nc1ccccc1-c1nc2cc(CN3CCNCC3)cnc2s1)c1cccc(C(F)(F)F)c1", "EC50", "5 to 50 µM"),
    ("CN(C)c1cccc(C(=O)Nc2cccc(-c3nc4cnccc4o3)c2)c1", "EC50", "5 to 50 µM"),
]

Input line: Look at this molecule and give its reported EC50. c1cc(Nc2nc3ccccc3o2)nc(-c2nc3ncccc3o2)c1
Output line: < 5 µM

Input line: Look at this molecule and give its reported EC50. O=C(Nc1ccccc1-c1cn2c(CN3CCNCC3)csc2n1)c1cccc(-c2cc[nH]n2)c1
Output line: < 5 µM

Input line: Look at this molecule and give its reported EC50. O=C(Nc1cccc(-c2nc3ccncc3s2)c1)c1cc(C(F)(F)F)ccc1C(F)(F)F
Output line: 5 to 50 µM

Input line: Look at this molecule and give its reported EC50. COc1ccc(C(=O)Nc2ccc(-c3nc4ncccc4s3)cc2)cc1OC
Output line: < 5 µM

Input line: Look at this molecule and give its reported EC50. COc1ccc(C(=O)Nc2cccc(-c3nc4ncccc4[nH]3)c2)c(OC)c1
Output line: < 5 µM

Input line: Look at this molecule and give its reported EC50. COc1ccc(C(=O)Nc2ccccc2-c2cn3cc(CN4CCNCC4)sc3n2)cc1OC
Output line: 5 to 50 µM

Input line: Look at this molecule and give its reported EC50. COc1ccc(C(=O)Nc2cccc(-c3cc4cccnc4o3)c2)cc1OC
Output line: 5 to 50 µM

Input line: Look at this molecule and give its reported EC50. COc1cc(C(=O)Nc2ccccc2-c2nc3ccccc3n2C)cc(OC)c1OC
Output line: 5 to 50 µM
